Taken from PubChem BioAssay AID624129.

target: Apelin receptor (Homo sapiens) (UniProt P35414); assay: potency against CXCR6 with APJ panel – cell-based, beta-arrestin, DiscoveRx, uHTS hits, dose response (AID 624129); conditions: CXCR6 beta-arrestin (DiscoveRx) antagonist cell assay, APJ, dose range 1
pIC50: −log10 of the molar value.
Item-by-item account of pIC50
assay.endpoint: pIC50

INSERT INTO results (compound, assay_endpoint, number) VALUES
  ('COc1cc2c(cc1OC)C1(CCCC1)CNC2c1cccc([N+](=O)[O-])c1 (stereo not given)', 'pIC50', 4.70),
  ('COc1ccc(-c2csc(Cc3nc(O)cs3)n2)cc1', 'pIC50', 5.35),
  ('C/C(=N\NC(=O)c1ccc(F)cc1)c1ccccn1', 'pIC50', 6.07),
  ('COc1ccc([N+](=O)[O-])c(S(=O)(=O)c2ccccc2)n1', 'pIC50', 4.67),
  ('CCOc1ccccc1NC(=O)c1nc(S(=O)(=O)Cc2ccccc2)ncc1Cl', 'pIC50', 4.87),
  ('Cc1ccc2c(c1)C1CN(C)CCC1N2C(=S)NC(=O)c1ccc(Br)cc1 (stereo not given)', 'pIC50', 4.89),
  ('C=C1CC(COc2cc(=O)oc3ccccc23)(c2ccccc2)OC1=O (stereo not given)', 'pIC50', 4.96),
  ('CC(=O)/C(=N\Nc1ccc(Cl)cc1Cl)Sc1cccc2cccnc12', 'pIC50', 5.55),
  ('C=C1C(=O)C23C(O)C1CCC2C12CCCC(C)(COC(C)=O)C1C(O)C3(O)OC2 (stereo not given)', 'pIC50', 5.05),
  ('O=C(Nc1ccccc1Cl)/C(Cl)=C(\Cl)S(=O)c1ccccc1 (stereo not given)', 'pIC50', 4.90),
  ('C=C1C(=O)c2sccc2C(c2ccc(OC)c(OC)c2)C1COC(C)=O (stereo not given)', 'pIC50', 5.14),
  ('CCOC(=O)c1c(C)oc2c1c(C=NCc1ccccn1)c(O)c1ccccc12', 'pIC50', 4.91),
  ('Cc1ccc2c(C)ccc(O)c2n1', 'pIC50', 5.28),
  ('O=C(Nc1nccs1)c1sc2cc(Cl)ccc2c1Cl', 'pIC50', 4.32),
  ('COc1ccc(C2CC(c3c(O)n(CCc4ccccc4)c(=O)[nH]c3=O)=NN2)cc1OC (stereo not given)', 'pIC50', 4.98),
  ('C=C1C(=O)O[C@@H]2C[C@@H](C)[C@@H]3C=CC(=O)[C@@]3(C)[C@@H](OC(=O)CC(=O)O[C@H]3[C@@H]4C(=C)C(=O)O[C@@H]4C[C@@H](C)[C@@H]4C=CC(=O)[C@]43C)[C@H]12', 'pIC50', 5.34),
  ('CCCC(=O)OCCNc1cc(Sc2nccn2C)c2nonc2c1[N+](=O)[O-]', 'pIC50', 5.08),
  ('Cc1c(Nc2cc(Cl)c3nonc3c2[N+](=O)[O-])c(=O)n(-c2ccccc2)n1C', 'pIC50', 5.34),
  ('Cc1cc(C)c2c(=O)n(CC(=O)Nc3cccc(Cl)c3C)sc2n1', 'pIC50', 5.77),
  ('C/C(=N\NC(=O)C(c1ccccc1)c1ccccc1)c1ccccn1', 'pIC50', 5.14),
  ('N#CC(C#N)=C1C=CC=CN1/C(=C\c1ccco1)C(=O)c1ccc(Cl)cc1', 'pIC50', 4.52),
  ('COc1ccc(NC(=O)/C(Cl)=C(/Cl)S(=O)(=O)Cc2ccc(C)cc2)cn1', 'pIC50', 6.16),
  ('COc1ccc(NC(=O)/C(Cl)=C(/Cl)S(=O)Cc2ccccc2)cn1 (stereo not given)', 'pIC50', 4.97),
  ('COc1cccc(-n2nc(C#N)c(Cl)cc2=O)c1', 'pIC50', 5.10),
  ('CCC(=O)OCCNc1cc(Sc2nccn2C)c2nonc2c1[N+](=O)[O-]', 'pIC50', 5.13),
  ('COc1ccc(CN2C(=O)C(Cc3ccccc3)Nc3ncnc(N4CCN(c5ccccc5)CC4)c32)cc1 (stereo not given)', 'pIC50', 5.18),
  ('CC(C)(C)c1ccc(CN2N=Nc3ccccc3S2(=O)=O)cc1', 'pIC50', 4.87),
  ('COCc1cc(=O)[nH]c(Nc2nc3ccc(C)cc3o2)n1', 'pIC50', 5.38),
  ('CCOc1cc(Br)c(Br)c(C=Nc2ccc(NC(C)=O)cc2)c1O', 'pIC50', 4.34),
  ('CC(=O)OCCNc1cc(SCc2ccco2)c2nonc2c1[N+](=O)[O-]', 'pIC50', 4.67),
  ('O=C(Nc1nc(-c2ccccn2)cs1)Nc1ccc(F)cc1F', 'pIC50', 5.07),
  ('CCC(=O)OCOc1ccc(/C=C2/CCC(CN(C)C)C2=O)cc1 (stereo not given)', 'pIC50', 4.76),
  ('COC(=O)C1=C(c2ccc(-c3ccccc3)c(F)c2)C[C@@H]2CC[C@H]1N2C(=O)N1CCC(C)CC1', 'pIC50', 5.07),
  ('Oc1cccc2ccc(/C=C/c3c(F)cccc3Cl)nc12', 'pIC50', 5.17),
  ('O=C(Cn1sc2ccccc2c1=O)NC12CC3CC(CC(C3)C1)C2', 'pIC50', 5.69),
  ('CCc1ccccc1OCC(=O)Nc1nc(-c2cccnc2)cs1', 'pIC50', 5.07),
  ('CCOC(=O)c1c(SCCN2CCCCC2)n(-c2ccccc2)c(=S)n(-c2ccccc2)c1=O', 'pIC50', 5.22),
  ('CCn1c(=O)c([N+](=O)[O-])c(Cl)c2ccccc21', 'pIC50', 4.50),
  ('CN(C)c1nc(=NCc2ccco2)ss1', 'pIC50', 4.50),
  ('CC(=O)OCCCNc1cc(Sc2ccc(Cl)cc2)c2nonc2c1[N+](=O)[O-]', 'pIC50', 5.29);
